- System: HS 578T breast
- measurement-protocol: NCI-60 one-dose screen, 48 h
- experimental-parameters: 10 µM unless noted
- Experimental: Growth inhibition of the HS 578T human tumor cell line is measured as a screen for anti-cancer activity. Cells are grown in 96 well plates and exposed to the test compound for 48 hours. Compounds are tested at a single concentration, which is 10^-5 M for most compounds. The reported endpoint is percent growth (GI% or GIPRCNT), where numbers from 0 - 100% represent growth inhibition, and numbers from -100% - 0 represent cell death. For example, a value of 40 represents 60% growth inhibition. […]
The panel holds about 83,000 compounds, 20% with a hit somewhere; the sample as a whole holds those more often. Active and inactive are the calls of the source. How the source made its calls: active means growth percent below 10; inactive means the rest.
Thanks in advance; please answer with one of these: active, inactive

# count of solved cases: 5
{"columns": ["mol-smiles", "study-target", "answer-label"],
 "data": [
  ["C#CCOc1cccc(-c2nc(N)nc(Nc3ccccc3SSc3ccccc3Nc3nc(N)nc(-c4cccc(OCC#C)c4)n3)n2)c1", "HS 578T breast", "inactive"],
  ["CCN(CC)CCOc1ccc(C(=C(C)Cc2ccc(OC)cc2)c2ccc(OCCN(CC)CC)cc2)cc1", "HS 578T breast", "inactive"],
  ["Brc1cccc(-c2cc(-c3ccc4c(c3)OC=CO4)[nH]n2)c1", "HS 578T breast", "inactive"],
  ["CNC(=O)c1cc(N2CCc3cc(NC(=O)Nc4ccc(N5CCOCC5)c(C(F)(F)F)c4)ccc32)ccn1", "HS 578T breast", "active"],
  ["O=C(NNc1nc2cc(F)cc(F)c2n2cccc12)c1cccnn1", "HS 578T breast", "inactive"]
]}

Q) Outcome? `COc1ccc(NC2=C(Br)C(=O)C(C)=C(C)C2=O)cc1OC`
A) inactive

Q) Outcome? `O=c1oc2ccc(-c3ccc(F)cc3F)cc2c(=O)n1-c1ccc(Br)cc1F`
A) inactive

Q) Outcome? `CN1CCN(CCNc2nc(-c3cccc(NS(=O)(=O)c4cccc5c(N(C)C)cccc45)c3)cs2)CC1`
A) inactive

Q) Outcome? `CCCCSC1=C(Cl)CN(c2ccc(Cl)cc2)C1=O`
A) inactive

====

- System: SF-295 CNS
- measurement-protocol: NCI-60 one-dose screen, 48 h (100 = growth as untreated, 0 = no growth, -100 = all killed)
- experimental-parameters: 10 µM unless noted
Compounds without any hit were thinned out: in the full panel of roughly 83,000, 20% have a hit.
measurement-label: growth (%)
Give bare numbers, in %.

{"columns": ["compound", "unit-of-measurement", "value-observed"],
 "data": [
  ["Cc1[nH]c(C(=O)Nc2ccccc2OCc2cccc(C(=O)NC3CCCNC3)c2)c(Cl)c1Cl (stereo not drawn)", "%", -87.9],
  ["O=C(O)c1ccc(-n2c(=O)n(-c3cccc(C(F)(F)F)c3)c(=O)c3cc(-c4ccc(F)cc4F)ccc32)cc1", "%", -12.6],
  ["CSc1ccc(/C(=N/N=C(N)N)c2ccc(F)cc2)cc1", "%", 11.8],
  ["C#CCN(C)CCCOc1ccc(NC(=O)CCCCCCC(=O)NO)cc1Cl", "%", 7.83],
  ["CC1=C(C)C(=O)C(Nc2ccc(C)c(C)c2)=C(Br)C1=O", "%", 92.9],
  ["CN1CCN(c2ccc(Nc3nc(NCCNS(=O)(=O)c4ccc5ccccc5c4)c4sccc4n3)cc2)CC1", "%", 102]
]}

Hi! Can you tell me growth for each of these compounds?
1. N#Cc1c(-c2cccs2)c(C#N)c(=O)n(Cc2nc3ccccc3[nH]2)c1N
2. COc1ccc(/C=N/NC(=O)CSc2nc(-c3cnccn3)cc(-c3cccs3)c2C#N)cc1OC
3. C=C(C=O)[C@@H]1CC[C@]2(C(=O)O)CC[C@]3(C)C(CC[C@@H]4[C@@](C)(CCC#N)[C@H](C(=C)C=O)CC[C@]43C)[C@@H]12 (stereo partly drawn)
4. CNCCN(C)c1ccc(Nc2cc(NC3CC3)n3ncc(C#N)c3n2)cc1NC(C)=O
5. C#Cc1cc(C(=O)Nc2ccc(CNCCN3CCOCC3)c(C(F)(F)F)c2)ccc1C
6. CC(=C(c1ccc(OCCN2CCCC2)cc1)c1ccc(OCCN2CCCC2)cc1)c1ccc(Cl)cc1
7. CC/C(=C(/c1ccc(Cl)cc1)c1ccc(OCCN)cc1)c1ccccc1
8. CCOP(=O)(OCC)OC[C@]12CCC(C)(C)C[C@H]1C1=CC[C@@H]3[C@@]4(C)CC[C@H](OP(=O)(OCC)OCC)C(C)(C)[C@@H]4CC[C@@]3(C)[C@]1(C)CC2

A)
1. 107
2. 83.1
3. 62.7
4. 12
5. 99.6
6. -63.7
7. 107
8. 51.8

Hi! Can you tell me growth for each of these compounds?
1. O=C(CCCCCCN1CC(=O)N2[C@@H](c3ccccc3Br)c3[nH]c4ccccc4c3C[C@H]2C1=O)NO
2. Cc1ccc2c(n1)C(=O)C(Cl)=C(Nc1cccc(C(=O)OC(C)(C)C)c1)C2=O
3. CCCCN1C(=O)/C(=c2\sc3n(c2=O)C2C(NN=3)N(CC)C(=O)N2CC)c2cc(C)ccc21 (stereo not drawn)
4. COc1ccc(C(=O)c2c(N)c(C#N)cn2-c2ccc(Cl)cc2Cl)cc1

A)
1: 55.3; 2: 104; 3: 99.6; 4: 98.8

====

- Tested on: KM12 colon
- measurement-protocol: NCI-60 one-dose screen, 48 h
- experimental-parameters: 10 µM unless noted
- Description: Growth inhibition of the KM12 human tumor cell line is measured as a screen for anti-cancer activity. Cells are grown in 96 well plates and exposed to the test compound for 48 hours. Compounds are tested at a single concentration, which is 10^-5 M for most compounds. The reported endpoint is percent growth (GI% or GIPRCNT), where numbers from 0 - 100% represent growth inhibition, and numbers from -100% - 0 represent cell death. For example, a value of 40 represents 60% growth inhibition. […]
Compounds without any hit were thinned out: in the full panel of roughly 83,000, 20% have a hit. Calls of active or inactive are those of the source. How the source made its calls: active means growth percent below 10; inactive means the rest.
Thanks in advance; please answer with one of these: 1 (yes) (active), 0 (no) (inactive)

{"columns": ["molecule", "study-target", "answer-label"],
 "data": [
  ["O=S(=O)(NCCCNc1nccc(-c2[nH]c(-c3ccccc3)nc2-c2ccc(F)c(O)c2)n1)c1ccccc1", "KM12 colon", "0 (no)"],
  ["C#C[C@]1(O)CC[C@H]2[C@@H]3CC=C4c5sc(N(C)c6ccccc6)nc5CC[C@]4(C)[C@H]3CC[C@@]21C", "KM12 colon", "0 (no)"],
  ["C#C[C@]1(O)CC[C@H]2[C@@H]3CC=C4c5sc(Nc6ncccc6C)nc5CC[C@]4(C)[C@H]3CC[C@@]21C", "KM12 colon", "1 (yes)"],
  ["CN1CCN(c2ccc(Nc3nc(NCCNS(=O)(=O)c4ccccc4)c4sccc4n3)cc2)CC1", "KM12 colon", "0 (no)"],
  ["CC(=O)/C(N=Nc1ccc2oc(=O)ccc2c1)=C(\\C)O", "KM12 colon", "0 (no)"]
]}

Okay, now this molecule:
Q) Outcome? `COc1cc(C(=O)c2cc(C(C)=O)c3c(C)cccn23)cc(OC)c1OC`
A) 0 (no)

====

- Tested on: CAKI-1 renal
- measurement-protocol: NCI-60 one-dose screen, 48 h
- experimental-parameters: 10 µM unless noted
Compounds without any hit were thinned out: in the full panel of roughly 83,000, 20% have a hit. Calls of active or inactive are those of the source. How the source made its calls: active means growth percent below 10; inactive means the rest.
Thanks in advance; please answer with one of these: YES (active), NO (inactive)

# count of solved cases: 8
{"columns": ["molecule", "answer-label"],
 "data": [
  ["O=c1c2cc(-c3ccc(F)cc3F)ccc2n(Nc2ccccc2)c(=O)n1-c1cccc(C(F)(F)F)c1", "YES"],
  ["Cn1cc(-c2cc3ncnc(Nc4ccc(NC(=O)Nc5cc(C(C)(C)C)on5)cc4)c3s2)cn1", "NO"],
  ["N#Cc1c(-c2cccs2)c(C#N)c(=O)n(Cc2nc3ccccc3[nH]2)c1N", "NO"],
  ["O=C(/C=C/Nc1ccc(S(=O)(=O)Nc2ncccn2)cc1)c1ccc(N=Cc2c(O)[nH]c3ccccc23)cc1", "NO"],
  ["O=C(Nc1cc(C(F)(F)F)cc(C(F)(F)F)c1)Nc1ccc2oc(=O)ccc2c1", "YES"],
  ["N#Cc1c(-c2ccc(Br)cc2)cc(-c2c[nH]c3ccccc23)nc1N", "NO"],
  ["Cc1ccc(S(=O)(=O)c2nc(-c3ccc(F)cc3)oc2S(C)(=O)=O)cc1", "NO"],
  ["CC1(C)CC[C@]23CC[C@]4(C)[C@H](CC[C@@H]5[C@@]6(C)CC[C@H](NCO)C(C)(C)[C@@H]6CC[C@]54C)[C@H]2[C@H]1OC3", "NO"]
]}

Q) Outcome? `Cc1c(C(=O)/C=C/c2ccc(Cl)cc2)nnn1-c1ccc2oc(=O)ccc2c1`
A) NO

Q) Outcome? `Cn1cc(-c2nnc(N)nc2-c2c[nH]c3ccc(F)cc23)c2cc(Br)ccc21`
A) NO

Q) Outcome? `N#Cc1c(-c2cccs2)cc(-c2cnccn2)nc1SCC(=O)N/N=C/c1ccncc1`
A) NO

Q) Outcome? `CN1CCC[C@]2(C)[C@H]3CC[C@@H]4[C@@H]5[C@H]6OC[C@@]5(CCC6(C)C)CC[C@@]4(C)[C@]3(C)CC[C@H]2C1(C)C`
A) NO

Q) Outcome? O=C1CSC(c2cn(-c3ccccc3)nc2-c2ccc(Cl)cc2)N1c1ccccc1 (stereo not drawn)
A) NO

Q) Outcome? `CCCCCCOC(=O)c1cc(-c2ccc(F)cc2)nc2ccccc12`
A) NO

Q) Outcome? `CCOC(=O)C(=O)Nc1ccc2c(ccn2C(=O)c2cccc(F)c2)c1`
A) NO

Q) Outcome? `COC(=O)CCCNCCCn1ccc2cc(NCc3cccc(-c4ccccc4)c3C)ccc21`
A) NO

Q) Outcome? `O=C(CCCCCCNC(=O)C(O)(O)C(F)(F)F)Nc1ncc(-c2ccc(Br)cc2)s1`
A) YES

Q) Outcome? `CN1CCN(Cc2ccc(NC(=O)c3cncc(C#Cc4cnc5ccc(O[C@@H]6CCOC6)nn45)c3)cc2C(F)(F)F)CC1`
A) YES
